FYI, the data here is from PubChem BioAssay AID234.

Tested on: C3AKF1 mice, hamster liver cystadenocarcinoma s.c., tumor weight T/C
ASSAY DETAILS: NCI In Vivo Anticancer Drug Screen. Data for tumor model Cystadenocarcinoma, Liver (No. 1) (Hamster) (subcutaneous) in C3AKF1 (CHKRF1) mice
MEASUREMENT SETUP: endpoint: mean tumor weight; dose: 40.0 mg/kg/injection; schedule: Q01DX010 (ip); vehicle: carboxymethylcellulose (CMC); higher = larger tumour
Records with an inconclusive call do not appear.
Exercise: for every item that follows, state its recorded T/C.

Here is how some compounds turned out for T/C.
COMPOUND: Cn1c(=O)c2[nH]c(CCCc3nc4c([nH]3)c(=O)n(C)c(=O)n4C)nc2n(C)c1=O
ASSAY SYSTEM: C3AKF1 mice, hamster liver cystadenocarcinoma s.c., tumor weight T/C
QUANTITY NAME: T/C
READING: 68 % of control
--
COMPOUND: CCCC(Sc1nc(N)nc2nc[nH]c12)C(=O)O (configuration not stated)
ASSAY SYSTEM: C3AKF1 mice, hamster liver cystadenocarcinoma s.c., tumor weight T/C
QUANTITY NAME: T/C
READING: 123 % of control
--
COMPOUND: CN(C)Nc1ncnc2nc[nH]c12
ASSAY SYSTEM: C3AKF1 mice, hamster liver cystadenocarcinoma s.c., tumor weight T/C
QUANTITY NAME: T/C
READING: 102 % of control
--
COMPOUND: CCOC(=O)C(Cc1ccc(N(CCCl)CCCl)cc1)NC=O (configuration not stated)
ASSAY SYSTEM: C3AKF1 mice, hamster liver cystadenocarcinoma s.c., tumor weight T/C
QUANTITY NAME: T/C
READING: 55 % of control
--
COMPOUND: CS(=O)(=O)OCC(=O)NCCNC(=O)COS(C)(=O)=O
ASSAY SYSTEM: C3AKF1 mice, hamster liver cystadenocarcinoma s.c., tumor weight T/C
QUANTITY NAME: T/C
READING: 100 % of control

Lab note: each compound below needs its T/C filled in.
1. CSc1ncc(Br)c(Sc2nc(N)nc3nc[nH]c23)n1
2. [I][Hg][CH2]C1COCC([CH2][Hg][I])O1.[I][Hg][CH2]C1COCC([CH2][Hg][I])O1 (configuration not stated)

Response:
65 % of control
91 % of control

---

Exercise: for every item that follows, state its recorded T/C.
Tested on: C3AKF1 mice, hamster liver cystadenocarcinoma s.c., tumor weight T/C
ASSAY DETAILS: NCI In Vivo Anticancer Drug Screen. Data for tumor model Cystadenocarcinoma, Liver (No. 1) (Hamster) (subcutaneous) in C3AKF1 (CHKRF1) mice
MEASUREMENT SETUP: endpoint: mean tumor weight; dose: 1.25 mg/kg/injection; schedule: Q01DX010 (ip); vehicle: carboxymethylcellulose (CMC); higher = larger tumour
Records with an inconclusive call do not appear.

Here is how some molecules turned out for T/C.
MOLECULE: CN(C)c1ccc(/C=C\c2ccnc3ccccc23)cc1
QUANTITY NAME: T/C
READING: 98 % of control
//
MOLECULE: O=C1C=Cc2ccc(O)cc2C1=O
QUANTITY NAME: T/C
READING: 71 % of control
//
MOLECULE: NC(=O)c1ccc(NC(=O)CCC(=O)Nc2ccc(C(N)=O)cn2)nc1
QUANTITY NAME: T/C
READING: 92 % of control

Now for the molecule whose T/C we want.
Request: What value of measured T/C is listed for NC(Cc1ccc(N(CCCl)CCCl)cc1)C(=O)O (centres undefined) ?
Response: 70 % of control

---

System: C3AKF1 mice, hamster liver cystadenocarcinoma s.c., tumor weight T/C
ASSAY DETAILS: NCI In Vivo Anticancer Drug Screen. Data for tumor model Cystadenocarcinoma, Liver (No. 1) (Hamster) (subcutaneous) in C3AKF1 (CHKRF1) mice
MEASUREMENT SETUP: endpoint: mean tumor weight; dose: 2.5 mg/kg/injection; schedule: Q01DX010 (ip); vehicle: carboxymethylcellulose (CMC); higher = larger tumour
Records with an inconclusive call do not appear.
Exercise: for every item that follows, state its recorded T/C.

MOLECULE: NC(Cc1ccc(N(CCCl)CCCl)cc1)C(=O)O (stereo not given)
ASSAY SYSTEM: C3AKF1 mice, hamster liver cystadenocarcinoma s.c., tumor weight T/C
READING: 65 % of control
//
MOLECULE: NC(=O)c1ccc(NC(=O)CCC(=O)Nc2ccc(C(N)=O)cn2)nc1
ASSAY SYSTEM: C3AKF1 mice, hamster liver cystadenocarcinoma s.c., tumor weight T/C
READING: 72 % of control
//
MOLECULE: CN(C)c1ccc(/C=C\c2ccnc3ccccc23)cc1
ASSAY SYSTEM: C3AKF1 mice, hamster liver cystadenocarcinoma s.c., tumor weight T/C
READING: 95 % of control

Lab note: each molecule below needs its T/C filled in.
1. O=C1C=Cc2ccc(O)cc2C1=O
2. O=C(O)CCc1c[nH]c2ccc(N(CCCl)CCCl)cc12

Response:
1: 72 % of control; 2: 97 % of control
